targetOfAssay: Notch receptor (human)
assayOverview: cell-based or functional assay
attributeMeasured: IC50 (ng Ab/mL), MTS viability of HCC2429 cells (repeat 1)
Give bare numbers, in ng Ab/mL.

Lookup: I would be grateful if you could share the reported IC50 (ng Ab/mL), MTS viability of HCC2429 cells (repeat 1) for Notch-28-v1010-hG1-(C)_mcValCitPABC-#54 (antibody, human IgG1, kappa, V domains shown, drug-linker mcValCitPABC-#54 on cysteine (C), positions not given; drug-linker mcValCitPABC-#54 on cysteine (C), positions not given; DAR 3.9 per antibody) VH: EVQLVESGGGLVQPGGSLRLSCAASGFTFRDYGMTWVRQAPGKGLEWVAYISSGSNYIYYAEAVKGRFTISRDNAKNSLYLQMNSLRAEDTAVYYCARRGPFVLDAWGQGTLVTVSS VL: DIQMTQSPSSLSASVGDRVTITCKASQSINRYLHWYQQKPGKAPKLLIYNANGLQTGVPSRFSGSGSGTDFTLTISSLQPEDFATYYCLQHNTWPDTFGGGTKVEIKR .
Found: 473
